All figures here come from the supplement of paper PMC9112550.

shrunken log2 fold change values by entry
# Tested on: Escherichia coli TOP10
# Procedure summary: shrunken log2 fold change of peptide-encoding DNA abundance (4.5 h post-induction vs induction); higher = less antimicrobial activity (less host growth inhibition)
# Condition description: time post-induction: 4.5 h; library: site-saturation at positions 5, 18, 19, 20

[[record]]
primary_sequence = "RRIRSRPPRLPRPRPRPNFLPRP"
test_system = "Escherichia coli TOP10"
measurement_kind = "shrunken log2 fold change"
readout_value = -0.304


Inquiry: Please report shrunken log2 fold change for the following sequence: `RRIRDRPPRLPRPRPRPNIPPRP`
Reply text: -0.623

Inquiry: Please report shrunken log2 fold change for the following sequence: `RRIRERPPRLPRPRPRPGFTPRP`
Reply text: 0.00165

###

shrunken log2 fold change values by entry
# Test system: Escherichia coli TOP10
# Procedure summary: shrunken log2 fold change of peptide-encoding DNA abundance (4.5 h post-induction vs induction); higher = less antimicrobial activity (less host growth inhibition)
# Condition description: time post-induction: 4.5 h; library: site-saturation at positions 5, 18, 19, 20
Give a plain numeric answer without units written out.

[[record]]
primary_sequence = "RRIRMRPPRLPRPRPRPPHCPRP"
readout_value = 1.68


Inquiry: Give measured shrunken log2 fold change for `RRIRKRPPRLPRPRPRPSEAPRP` (Escherichia coli TOP10).
Reply text: 0.401

Inquiry: Give measured shrunken log2 fold change for `RRIRWRPPRLPRPRPRPVLAPRP` (Escherichia coli TOP10).
Reply text: 0.582

Inquiry: Give measured shrunken log2 fold change for `RRIRKRPPRLPRPRPRPMHVPRP` (Escherichia coli TOP10).
Reply text: -0.0434

Inquiry: Give measured shrunken log2 fold change for `RRIRVRPPRLPRPRPRPMTTPRP` (Escherichia coli TOP10).
Reply text: 0.0377

Inquiry: Give measured shrunken log2 fold change for `RRIRDRPPRLPRPRPRPVIRPRP` (Escherichia coli TOP10).
Reply text: -0.19

Inquiry: Give measured shrunken log2 fold change for `RRIRWRPPRLPRPRPRPALDPRP` (Escherichia coli TOP10).
Reply text: 0.553

Inquiry: Give measured shrunken log2 fold change for `RRIRQRPPRLPRPRPRPYDTPRP` (Escherichia coli TOP10).
Reply text: -0.307

Inquiry: Give measured shrunken log2 fold change for `RRIRWRPPRLPRPRPRPRVYPRP` (Escherichia coli TOP10).
Reply text: -0.401

###

shrunken log2 fold change values by entry
# System: Escherichia coli TOP10;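 further: peptides expressed intracellularly from a pBAD plasmid library in pooled LB shake-flask culture, induced with 0.3% L-arabinose, DNA abundance read by NGS, three biological replicates, DESeq2 with apeglm shrinkage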
# Procedure summary: shrunken log2 fold change of peptide-encoding DNA abundance (4.5 h post-induction vs induction); higher = less antimicrobial activity (less host growth inhibition)
# Condition description: time post-induction: 4.5 h; library: site-saturation at positions 5, 18, 19, 20
Give a plain numeric answer without units written out.

A selection of reference data follows.
[[record]]
primary_sequence = "RRIRFRPPRLPRPRPRPCCCPRP"
measurement_kind = "shrunken log2 fold change"
readout_value = 0.0783

[[record]]
primary_sequence = "RRIRPRPPRLPRPRPRPPNMPRP"
measurement_kind = "shrunken log2 fold change"
readout_value = -0.0209

[[record]]
primary_sequence = "RRIRYRPPRLPRPRPRPHRQPRP"
measurement_kind = "shrunken log2 fold change"
readout_value = -0.0423

[[record]]
primary_sequence = "RRIRVRPPRLPRPRPRPWCIPRP"
measurement_kind = "shrunken log2 fold change"
readout_value = -0.165

[[record]]
primary_sequence = "RRIRDRPPRLPRPRPRPGDCPRP"
measurement_kind = "shrunken log2 fold change"
readout_value = 0.0646

[[record]]
primary_sequence = "RRIRVRPPRLPRPRPRPFKKPRP"
measurement_kind = "shrunken log2 fold change"
readout_value = -0.115


Inquiry: Give measured shrunken log2 fold change for `RRIRMRPPRLPRPRPRPWKVPRP` (Escherichia coli TOP10).
Reply text: -0.0135

Inquiry: Give measured shrunken log2 fold change for `RRIRDRPPRLPRPRPRPLCRPRP` (Escherichia coli TOP10).
Reply text: -0.0528
